Ref: PubChem BioAssay

Biological target: Nuclear receptor coactivator 2 (Homo sapiens)
Assay: SRC2 coactivator transcriptional activity inhibitors, confirmation, cell-based, luminescence, HEK293, triplicate (AID 652008);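 note: 0% = DMSO-treated cells and 100% = Gossypol at 36 µM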
Conditions: HEK293 GAL4-SRC2 luciferase reporter, at 8.9 µM, hits give high values
QUANTITY KIND: inhibition (%)
Dear colleague, please return just the value in %, with no unit written.

I'd like to know its inhibition. The compound in question is `COc1ccc(-c2nc(-c3ccccn3)no2)cc1`
80.7

I'd like to know its inhibition. The compound in question is `C=CC(=O)NN(C)c1ncc(C(F)(F)F)cc1Cl`
7.42

I'd like to know its inhibition. The compound in question is `O=C(Nc1cccc(-c2cccc(Cl)c2)c1)C1CCN(Cc2ccccn2)CC1`
17.7

I'd like to know its inhibition. The compound in question is `c1ccc(CNc2ncnc3ccccc23)cc1`
48.8

I'd like to know its inhibition. The compound in question is `CC[C@@]1(O)C(=O)OCc2c1cc1n(c2=O)Cc2cc3c(CN(C)C)c(O)ccc3nc2-1`
46

I'd like to know its inhibition. The compound in question is `Cc1cc(C2=NNC(=NC3CC3)SC2)c(C)n1Cc1ccco1`
93.6

I'd like to know its inhibition. The compound in question is `COc1ccc(S(=O)(=O)n2ccc(-c3ccc(OCCN(C)c4ccccn4)cc3)n2)cc1`
30.2

I'd like to know its inhibition. The compound in question is CC1CCc2c(sc(NC(=O)CSc3ncn[nH]3)c2C#N)C1 (stereo not drawn)
90.2

I'd like to know its inhibition. The compound in question is CC12CCC(=O)C=C1CCC1C2CCC2(C)C(c3csc(N)n3)CCC12 (stereo not drawn)
24.6

I'd like to know its inhibition. The compound in question is `CCN(CC)c1ccc(/C=N/Nc2nc(C)cc(=O)[nH]2)c(O)c1`
29.6

I'd like to know its inhibition. The compound in question is `COc1ccc(NC(=O)c2cccc(N3C(=O)c4cccc([N+](=O)[O-])c4C3=O)c2)cc1`
-27.1

I'd like to know its inhibition. The compound in question is CCC(=O)N1N=C(c2cccs2)CC1c1ccc(C)cc1 (stereo not drawn)
-13.8

I'd like to know its inhibition. The compound in question is Cc1cc(C(=O)CN2C(=O)c3ccccc3S2(=O)=O)c(C)n1CC1CCCO1 (stereo not drawn)
93.7

I'd like to know its inhibition. The compound in question is `CCNC(=O)COc1ccc(/C=C2\COc3ccccc3C2=O)cc1OC`
78.1

I'd like to know its inhibition. The compound in question is `Cc1ccc(S(=O)(=O)c2ccc([N+](=O)[O-])cn2)cc1`
23.4

I'd like to know its inhibition. The compound in question is `Cn1nnnc1Sc1ncnc2scc(-c3cccc(S(C)(=O)=O)c3)c12`
2.26

I'd like to know its inhibition. The compound in question is `O=C(CN1C(=O)c2ccccc2S1(=O)=O)c1ccc2c(c1)OCCCO2`
98

I'd like to know its inhibition. The compound in question is CCn1ccnc1CNC(=O)C1CCC(=O)N(Cc2ccccc2F)C1 (stereo not drawn)
-23.7

I'd like to know its inhibition. The compound in question is CCC(NC(=O)CCc1c(C)c2cc3c4c(oc3cc2oc1=O)CCCC4)C(=O)O (stereo not drawn)
70.3

I'd like to know its inhibition. The compound in question is `COc1ccc(C(=O)Nc2ccc(C)cn2)c(OC)c1`
49.8

I'd like to know its inhibition. The compound in question is `Cc1ccc(-c2csc(=Nc3cccnc3)n2CCCn2ccnc2)cc1C`
56.8

I'd like to know its inhibition. The compound in question is `C=C1CC2(OC1=O)c1ccccc1CCc1ccccc12`
29.7

I'd like to know its inhibition. The compound in question is `Cn1nnnc1Sc1ncnc2scc(-c3cccc(F)c3)c12`
38.1

---

Assignment: determine reported inhibition for the given molecules.
Test system: transactivating tegument protein VP16 (Human herpesvirus 1), Gal4-VP16 luciferase reporter
Assay: VP16 transactivation inhibitors, counter-screen for SRC3 inhibitor project, cell-based, luminescence, high throughput (AID 588794)
Conditions: mammalian cells, VP16-driven luciferase reporter luminescence; at 3.6 µM; hits give high values
Dear colleague, please return just the value in %, with no unit written.

I'd like to know its inhibition. The molecule in question is `O=C(Nc1nc(-c2ccccc2)cs1)c1ccccc1NS(=O)(=O)c1ccc(F)cc1`
65.5

I'd like to know its inhibition. The molecule in question is CC(C)c1ccc(/C=C2\SC(=S)N(CCC(=O)N3CCCCC3CCO)C2=O)cc1 (configuration not stated)
-27.8

I'd like to know its inhibition. The molecule in question is COc1ccc(N2CC(C(=O)N/N=C/c3ccccc3)CC2=O)cc1 (configuration not stated)
-0.56

I'd like to know its inhibition. The molecule in question is `Cc1cccc2cc(-c3ccccc3)c(-c3ccccc3)c[n+]12`
37

I'd like to know its inhibition. The molecule in question is `c1csc(CNc2ncnc3ccc(-c4ccoc4)cc23)c1`
41.1

I'd like to know its inhibition. The molecule in question is CCCCC(=O)OCC(=O)C1(O)Cc2c(O)c3c(c(O)c2C(OC2CC(NC(=O)C(F)(F)F)C(O)C(C)O2)C1)C(=O)c1c(OC)cccc1C3=O (configuration not stated)
10.2

I'd like to know its inhibition. The molecule in question is `Cc1cc(=O)[nH]c(Nc2cccc(C(F)(F)F)c2)n1`
34.2

I'd like to know its inhibition. The molecule in question is CC1CCc2sc3ncnc(N4CCOCC4)c3c2C1 (configuration not stated)
29.8

I'd like to know its inhibition. The molecule in question is `CCOc1cc(/C=C2\CN(CC)C/C(=C\c3ccc(O)c(OCC)c3)C2=O)ccc1O`
62.4

I'd like to know its inhibition. The molecule in question is `O=C(CSC1=NCCS1)Nc1ccnc2ccccc12`
37.7

I'd like to know its inhibition. The molecule in question is `Cc1cc(C)c(C(=O)/C=C/c2cccc3ccccc23)c(=O)[nH]1`
56.7

I'd like to know its inhibition. The molecule in question is `COc1ccc(NC(=O)c2cc(-c3cc(C)cc(F)c3)n[nH]2)cc1OC`
44.4

I'd like to know its inhibition. The molecule in question is COc1ccc(C(CC(=O)O)NC(=O)OC(C)(C)C)cc1 (configuration not stated)
3.31

I'd like to know its inhibition. The molecule in question is `c1cc(-c2nnc3sc(C4CCCCC4)nn23)ccn1`
37.2

I'd like to know its inhibition. The molecule in question is `CCOc1ccc(-n2c(-c3ccc(OC)cc3)c[n+]3c2CCCCC3)cc1`
67.5

I'd like to know its inhibition. The molecule in question is `CSCc1cc(N(C)c2ccccc2)nc(-c2ccccn2)n1`
-1.49

I'd like to know its inhibition. The molecule in question is `Fc1ccc(CSc2nnc(-c3ccncc3)o2)cc1`
22.7

I'd like to know its inhibition. The molecule in question is CCOc1ccc(N2C(=O)C(CC(=O)Nc3ccccc3)N(Cc3ccccn3)C2=S)cc1 (configuration not stated)
12.2

I'd like to know its inhibition. The molecule in question is `O=C(c1cc2sccc2n1Cc1ccccc1)N1CCN(c2nc3ccccc3s2)CC1`
35.9

I'd like to know its inhibition. The molecule in question is C=C1C(=O)C23C(O)C1CCC2C12CCCC(C)(COC(C)=O)C1C(O)C3(O)OC2 (configuration not stated)
58.3

I'd like to know its inhibition. The molecule in question is `CCc1ccc(CN(C)C(=O)c2cc(COc3cccc4cnccc34)on2)cc1`
33.7

I'd like to know its inhibition. The molecule in question is `COc1ccc(OC)c(C2C3=C(CCCC3=O)NC3=C2C(=O)CCC3)c1`
-6.31

---

Molecular target: Nuclear receptor coactivator 1 (Homo sapiens) (UniProt Q15788)
Sequence (Q15788 whole entry, looked up): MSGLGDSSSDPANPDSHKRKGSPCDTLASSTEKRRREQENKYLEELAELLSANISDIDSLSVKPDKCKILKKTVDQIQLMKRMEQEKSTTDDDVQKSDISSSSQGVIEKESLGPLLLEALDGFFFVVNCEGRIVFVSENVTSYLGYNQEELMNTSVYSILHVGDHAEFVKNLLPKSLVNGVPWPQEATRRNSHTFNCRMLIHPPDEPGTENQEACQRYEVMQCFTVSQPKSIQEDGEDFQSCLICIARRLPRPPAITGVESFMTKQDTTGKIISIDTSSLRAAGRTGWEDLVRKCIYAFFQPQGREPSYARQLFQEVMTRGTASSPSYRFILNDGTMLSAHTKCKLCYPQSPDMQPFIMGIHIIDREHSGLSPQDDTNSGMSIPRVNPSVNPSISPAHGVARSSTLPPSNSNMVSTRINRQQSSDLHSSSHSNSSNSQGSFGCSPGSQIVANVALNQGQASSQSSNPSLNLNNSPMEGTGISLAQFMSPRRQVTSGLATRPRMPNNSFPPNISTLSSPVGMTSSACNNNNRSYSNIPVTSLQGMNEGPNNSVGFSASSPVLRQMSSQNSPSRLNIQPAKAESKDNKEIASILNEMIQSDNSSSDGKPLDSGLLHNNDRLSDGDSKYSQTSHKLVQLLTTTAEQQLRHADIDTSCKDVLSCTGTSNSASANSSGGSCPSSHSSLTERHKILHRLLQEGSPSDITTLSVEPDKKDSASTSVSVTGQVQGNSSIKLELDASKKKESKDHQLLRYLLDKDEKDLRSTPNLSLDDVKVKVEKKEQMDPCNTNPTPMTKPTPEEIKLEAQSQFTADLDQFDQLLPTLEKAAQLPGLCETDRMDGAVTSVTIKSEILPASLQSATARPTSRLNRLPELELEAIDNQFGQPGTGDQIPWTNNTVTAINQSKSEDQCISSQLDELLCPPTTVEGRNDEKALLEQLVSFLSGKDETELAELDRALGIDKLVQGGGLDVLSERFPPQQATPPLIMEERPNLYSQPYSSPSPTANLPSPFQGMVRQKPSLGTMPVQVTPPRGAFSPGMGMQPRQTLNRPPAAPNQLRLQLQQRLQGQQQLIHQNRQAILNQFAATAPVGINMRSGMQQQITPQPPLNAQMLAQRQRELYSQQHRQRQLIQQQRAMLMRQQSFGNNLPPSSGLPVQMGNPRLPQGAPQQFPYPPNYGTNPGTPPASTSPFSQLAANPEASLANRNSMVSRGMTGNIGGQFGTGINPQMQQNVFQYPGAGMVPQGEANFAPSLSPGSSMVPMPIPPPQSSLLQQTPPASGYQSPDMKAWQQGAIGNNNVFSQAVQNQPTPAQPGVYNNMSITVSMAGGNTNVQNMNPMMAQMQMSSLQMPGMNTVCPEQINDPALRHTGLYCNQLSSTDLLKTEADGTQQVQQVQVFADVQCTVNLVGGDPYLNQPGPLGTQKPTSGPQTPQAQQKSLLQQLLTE
Test: SRC1 coactivator transcriptional activity inhibitors, confirmation, cell-based, luminescence, quadruplicate (AID 588820);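 note: 0% = DMSO wells and 100% = gossypol 36 µM treated wells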
Conditions: HEK293 GAL4-SRC1 luciferase reporter, at 3.6 µM, hits give high values
Assignment: determine reported inhibition for the given molecules.
Dear colleague, please return just the value in %, with no unit written.

State its inhibition on Nuclear receptor coactivator 1 (Homo sapiens) (UniProt Q15788): `NC(=S)NN=Cc1ccc(OC(=O)COc2cc(Cl)c(Cl)cc2Cl)cn1`
23.4

State its inhibition on Nuclear receptor coactivator 1 (Homo sapiens) (UniProt Q15788): `COc1cccc(NC(=O)CN(C)CC(=O)Nc2ccc(Cl)cc2[N+](=O)[O-])c1`
26.6

State its inhibition on Nuclear receptor coactivator 1 (Homo sapiens) (UniProt Q15788): `CCOc1ccc(-c2cc(C(=O)Nc3ccc(C)c(NS(C)(=O)=O)c3)[nH]n2)c(C)c1`
-14

State its inhibition on Nuclear receptor coactivator 1 (Homo sapiens) (UniProt Q15788): O=C(NC1CCCCC1)C(c1ccc(F)cc1)N(Cc1ccco1)C(=O)c1csnn1 (stereo not given)
-14.3

State its inhibition on Nuclear receptor coactivator 1 (Homo sapiens) (UniProt Q15788): `CCn1c(Oc2ccccc2C)nc2c1c(=O)n(C)c(=O)n2C`
51.5

State its inhibition on Nuclear receptor coactivator 1 (Homo sapiens) (UniProt Q15788): `C[n+]1c(-c2ccccc2)cc2c(=Cc3ccccc3)c3ccccc3n21`
27.9

State its inhibition on Nuclear receptor coactivator 1 (Homo sapiens) (UniProt Q15788): `NS(=O)(=O)c1ccc(NC(=O)c2cccc3cc4ccccc4nc23)cc1`
-13.3

State its inhibition on Nuclear receptor coactivator 1 (Homo sapiens) (UniProt Q15788): `CCCCCCCCCCOC(=O)Cn1c(COc2ccccc2C)[n+](C)c2ccccc21`
-8.25

State its inhibition on Nuclear receptor coactivator 1 (Homo sapiens) (UniProt Q15788): O=C(NC1CCCCC1)C(c1cccnc1)N(C(=O)CCl)c1ccccc1Cl (stereo not given)
67.1

State its inhibition on Nuclear receptor coactivator 1 (Homo sapiens) (UniProt Q15788): `CC(C)c1ccc(-c2nnn(CCC(=O)O)n2)cc1`
41.3
